test: Clearance in rat liver microsomes at 1 umol/L after 20 mins by HPLC analysis in presence of NADPH; assay type: ADME, Microsome; conditions: read-out: CLH
Readout kind: microsomal CLint at 1 µM (µL/min/mg)
Give bare numbers, in µL/min/mg.

Solved cases below.
## Task Would you kindly share the measured microsomal CLint at 1 µM for `CCCCCS(=O)(=O)NC(=O)/C=C/c1ccc(OCCOC2CC2)cc1Oc1ncc(C(F)(F)F)cc1Cl` ?
## Result 17

## Task Would you kindly share the measured microsomal CLint at 1 µM for `CCCCCS(=O)(=O)NC(=O)CCc1ccc(OC(C)C)cc1Oc1ncc(C(F)(F)F)cc1Cl` ?
## Result 94

// each listed molecule needs a value for microsomal CLint at 1 µM
1. CCCCCS(=O)(=O)NC(=O)CCc1ccccc1Oc1ncc(C(F)(F)F)cc1Cl
2. CCCCCNS(=O)(=O)NC(=O)CCc1ccc(OCCOC)cc1Oc1ncc(C(F)(F)F)cc1Cl
3. CCCCCS(=O)(=O)NC(=O)OCc1ccc(OCCOC)cc1Oc1ncc(C(F)(F)F)cc1Cl
4. COCCCS(=O)(=O)NC(=O)CCc1ccc(OCCOC)cc1Oc1ncc(C(F)(F)F)cc1Cl

## Result
120
111
31
11
